Tested on: UO-31 renal
assay: NCI tumour cell line growth inhibition, 48 h
metric: TGI

Consider the following illustrative entries.
                                   molecule  observed_value
0  COc1cc2c(cc1OC)C(O)[C@H](Br)C(C)(C)O2 (stereo not given in full)        > 100 µM
1  Cc1cccc2c1Oc1cc(Cl)ccc1C2NC(=O)CCN1CCOCC1 (stereo not given)        > 100 µM
2  CC(=O)OC1CC2c3cccc4c3C(CC2N(C)C1=O)CN4C(=O)c1ccccc1 (stereo not given)         42.1 µM
3  COc1cc(NC(C)CCCN)c2nccc(C)c2c1OC (stereo not given)         34.4 µM
4      CC(=O)c1c(CBr)n([O-])c2ccccc2[n+]1=O           19 µM
5    CCN1c2nc3ccccc3nc2N(CC)c2nc3ccccc3nc21        > 100 µM
6  CC(=O)N(C(=O)CC(=O)N/N=C\c1ccc(Br)c(N(CCC#N)CCC#N)c1)c1ccc(Cl)cc1        > 100 µM
7  Cc1ccc(Nc2nc(N)c(C(=O)c3ccc(C#N)cc3)s2)cc1        > 100 µM

query: Look up and report measured TGI for this entry: O=C1/C(=C\c2cccn2Cc2ccccc2)c2ccccc2N1c1c(Cl)cccc1Cl
result: > 100 µM

query: Look up and report measured TGI for this entry: C[C@]12CCC(=O)C=C1CC[C@@H]1C2CC[C@]2(C)c3nn(-c4ccc(F)cc4)nc3CC12 (stereo not given in full)
result: > 100 µM
